- experiment-summary: hESC survival regulators, cell-based (AID 493140);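 also: cells exposed to compounds for four days before counting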
- reported-conditions: human embryonic stem cell survival screen; hits give high values
Peptide text beside a SMILES is read from it.
Binning scheme for survival: low value: < 5; medium value: ≥ 5 and < 10; high value: ≥ 10

compound=COC(=O)[C@H]1[C@H]2C[C@H]3c4[nH]c5ccccc5c4CCN3C[C@@H]2CC[C@@H]1O category="high value"
compound="CC(C)(C)NCC(O)COc1cccc2c1CCC(=O)N2 (stereo not drawn)" category="medium value"
compound=CCCCOC(=O)c1ccc(O)cc1 category="low value"
compound=CN(C(=O)CN(CCO)CC(=O)N(C)C(C)(C)Cc1ccccc1)C(C)(C)Cc1ccccc1 category="medium value"
compound=CCn1nc(C(=O)O)c(=O)c2cc3c(cc21)OCO3 category="low value"
compound=Cc1[nH]ccc2c1[nH]c1cc(=O)ccc12 category="low value"
compound=Cc1cc2c(cc1S(N)(=O)=O)S(=O)(=O)CCC2 category="high value"
compound="NC(=O)OCC(O)COc1ccc(Cl)cc1 (stereo not drawn)" category="high value"
compound=CC[C@H](CO)NCCN[C@H](CC)CO category="high value"
compound="C[N+]1(C)CCCC(OC(=O)C(O)(c2ccccc2)c2ccccc2)C1 (stereo not drawn)" category="medium value"
compound=CCN1CCC[C@H]1CNC(=O)c1c(OC)ccc(Br)c1OC category="high value"
compound="CC(=O)N[C@@H](CC(=O)O)C(=O)N[C@@H](CCC(=O)O)C(=O)O (Ac-Asp-Glu-OH)" category="high value"
compound=CN(C)CC/C=C1/c2ccccc2Sc2ccc(Cl)cc21 category="low value"
compound="NC(Cn1ccc(=O)c(O)c1)C(=O)O (stereo not drawn)" category="high value"
compound=Cc1cccc(C)c1NC(=O)CN1CCN(CCCC(c2ccc(F)cc2)c2ccc(F)cc2)CC1 category="low value"
compound=C/C(=C(\CCOP(=O)(O)O)SC(=O)c1ccccc1)N(C=O)Cc1cnc(C)nc1N category="high value"
compound="CN(C)CCOC(c1ccccc1)c1ccccc1 (tested in a mixture with another compound)" category="high value"
compound="CN(C)CCC(c1ccc(Cl)cc1)c1ccccn1 (stereo not drawn)" category="high value"
compound="Cc1ccc2c(c1)c1c3n2CCNC3CCC1 (stereo not drawn)" category="high value"
compound="COC(=O)C1=C(C)NC(C)=C(C(=O)OCCN(C)Cc2ccccc2)C1c1cccc([N+](=O)[O-])c1 (stereo not drawn)" category="low value"
compound="NS(=O)(=O)c1cc2c(cc1Cl)NC(CC1CCCC1)NS2(=O)=O (stereo not drawn)" category="medium value"
compound=C[C@H](NCCc1ccc(O)cc1)[C@H](O)c1ccc(O)cc1 category="medium value"
compound="COc1cc(N)c(Cl)cc1C(=O)NC1CCN(CCCOc2ccc(F)cc2)CC1OC (stereo not drawn)" category="low value"
compound=C1CCc2nnnn2CC1 category="high value"
compound=Oc1c(I)cc(Cl)c2cccnc12 category="low value"
compound="CC(=O)N(CC(O)CN(C(C)=O)c1c(I)c(C(=O)NCC(O)CO)c(I)c(C(=O)NCC(O)CO)c1I)c1c(I)c(C(=O)NCC(O)CO)c(I)c(C(=O)NCC(O)CO)c1I (stereo not drawn)" category="low value"
compound=CC1(C)S[C@@H]2[C@H](NC(=O)[C@H](N)c3ccc(O)cc3)C(=O)N2[C@H]1C(=O)O category="medium value"
compound="CNCCC(Oc1ccc(C(F)(F)F)cc1)c1ccccc1 (stereo not drawn)" category="low value"
compound=O=C(O)COC(=O)Cc1ccccc1Nc1c(Cl)cccc1Cl category="high value"
compound=CC(C)n1c(/C=C/[C@@H](O)C[C@@H](O)CC(=O)O)c(-c2ccc(F)cc2)c2ccccc21 category="low value"
compound=N[C@@H](Cc1cc(I)c(Oc2ccc(O)c(I)c2)c(I)c1)C(=O)O category="low value"
compound="CCN1CCCC1CNC(=O)c1cc(S(N)(=O)=O)ccc1OC (stereo not drawn)" category="high value"
compound=CNCCCC1c2ccccc2C=Cc2ccccc21 category="low value"
compound=CC(=O)[C@H]1CC[C@H]2[C@@H]3CC=C4C[C@@H](O)CC[C@]4(C)[C@H]3CC[C@]12C category="medium value"
compound=Cc1cc(=O)oc2cc(O)ccc12 category="medium value"
compound="CCCC(=O)Nc1ccc(OCC(O)CNC(C)C)c(C(C)=O)c1 (stereo not drawn)" category="high value"
compound=C[C@H]1C[C@H]2[C@@H]3CCC4=CC(=O)C=C[C@]4(C)[C@@]3(F)[C@@H](O)C[C@]2(C)[C@@]1(O)C(=O)CO category="medium value"
compound=CCCCNc1ccc(C(=O)OCCOCCOCCOCCOCCOCCOCCOCCOCCOC)cc1 category="high value"
compound=COc1ccc(C(Cl)=C(c2ccc(OC)cc2)c2ccc(OC)cc2)cc1 category="low value"
compound="CC1CCCC(C)N1NC(=O)c1ccc(Cl)c(S(N)(=O)=O)c1 (stereo not drawn)" category="medium value"
compound=Cc1c(N)c(=O)n(-c2ccccc2)n1C category="high value"
